MEASUREMENT TARGET: T1, recombinant hSIRPg-His (Sino Biologicals, reference 11828-H08H) (human, UniProt Q9P1W8 29-360)
T1 construct: also called human SIRPg-His; not shown: His tag
T1 sequence (Q9P1W8 29-360 limits assumed): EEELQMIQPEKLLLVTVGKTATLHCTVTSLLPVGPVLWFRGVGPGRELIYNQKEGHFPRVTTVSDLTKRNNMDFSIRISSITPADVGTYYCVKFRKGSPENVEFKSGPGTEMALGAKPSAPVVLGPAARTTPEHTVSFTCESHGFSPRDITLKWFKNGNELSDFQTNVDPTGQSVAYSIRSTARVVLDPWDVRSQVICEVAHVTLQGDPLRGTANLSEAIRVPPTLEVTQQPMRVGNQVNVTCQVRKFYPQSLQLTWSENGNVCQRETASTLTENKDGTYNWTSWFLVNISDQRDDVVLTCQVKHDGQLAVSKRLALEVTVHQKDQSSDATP
MEASUREMENT DESCRIPTION: BLI (Blitz); SIRPg-His on Ni-NTA biosensor, antibody at 10 ug/ml or 20 ug/ml (Example 9) [B, table A]
Method: FIG. 8. (A) Affinity analysis by Blitz of anti-SIRP antibodies on human SIRPg recombinant protein. SIRPg-His recombinant protein was immobilized onto a NINTA biosensor and the indicated antibodies were added at 10 μg/ml. […] Method: This method was performed with a Blitz (Forte Bio; USA; reference C22-2 No 61010-1). […] Analysis of data was made with the Blitz pro 1.2 software, which calculated association constant (ka) and dissociation constant (kd) and determined the affinity constant KD […].
ENDPOINT NAME: kon (M⁻¹ s⁻¹)
Give bare numbers, in M⁻¹ s⁻¹.

Form: binder = Kwar23 (antibody, V domains shown) VH: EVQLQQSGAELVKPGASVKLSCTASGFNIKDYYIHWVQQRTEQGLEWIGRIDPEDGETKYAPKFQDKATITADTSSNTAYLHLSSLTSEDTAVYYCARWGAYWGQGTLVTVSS VL: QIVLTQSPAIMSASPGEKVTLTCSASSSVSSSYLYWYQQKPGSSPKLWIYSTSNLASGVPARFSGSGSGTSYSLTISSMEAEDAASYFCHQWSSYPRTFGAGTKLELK ; kon = 357000
